Tested on: biotinyl-Leu-oxazolone
Test: self-aminoacylation, catalytic enhancement (BLO) (fold over background); higher = more active; k-Seq, kA / k0A0; sequences stand for … in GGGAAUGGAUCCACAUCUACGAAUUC…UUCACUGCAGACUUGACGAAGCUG
Variants at the floor of the assay were thinned out.
METRIC NAME: self-aminoacylation

sequence_chain="AAGCACCUAGGUCAUCGGGUG [Fam2.2 aminoacylation ribozyme variant]" assayed_target=biotinyl-Leu-oxazolone recorded_measurement=2.66
sequence_chain="AUCACCCUGGGCAUCGAGUGA [Fam2.1 aminoacylation ribozyme variant]" assayed_target=biotinyl-Leu-oxazolone recorded_measurement=13.1
sequence_chain="AUUACCCUGGUCAACGAGUGC [Fam2.1 aminoacylation ribozyme variant]" assayed_target=biotinyl-Leu-oxazolone recorded_measurement=1.01
sequence_chain="AUACACCGAGGUCAUCGGGUG [Fam2.2 aminoacylation ribozyme variant]" assayed_target=biotinyl-Leu-oxazolone recorded_measurement=4.55
sequence_chain="CCACACUCCAAGCAAUCGGAC [Fam1B.1 aminoacylation ribozyme variant]" assayed_target=biotinyl-Leu-oxazolone recorded_measurement=1.37
sequence_chain="AUGUCCCUGGUCAUCGAGUGA [Fam2.1 aminoacylation ribozyme variant]" assayed_target=biotinyl-Leu-oxazolone recorded_measurement=40.9
sequence_chain="AUGCACCUGGGUCAUCGGGUG [Fam2.2 aminoacylation ribozyme variant]" assayed_target=biotinyl-Leu-oxazolone recorded_measurement=3.18
sequence_chain="AUUACCCCGGUCAUCGAGUGU [Fam2.1 aminoacylation ribozyme variant]" assayed_target=biotinyl-Leu-oxazolone recorded_measurement=2.45
sequence_chain="CUACUUCAAUCAAUCGGUCUG [Fam1A.1 aminoacylation ribozyme variant]" assayed_target=biotinyl-Leu-oxazolone recorded_measurement=1.44
sequence_chain="ACACACUUCAGGCAAUCGGUC [Fam1B.1 aminoacylation ribozyme variant]" assayed_target=biotinyl-Leu-oxazolone recorded_measurement=1.42
sequence_chain="AUUCCCCUGGGUCAUCGGGUG [Fam2.2 aminoacylation ribozyme variant]" assayed_target=biotinyl-Leu-oxazolone recorded_measurement=16.9
sequence_chain="AUUACCCUGGUCAACGCGUGA [Fam2.1 aminoacylation ribozyme variant]" assayed_target=biotinyl-Leu-oxazolone recorded_measurement=12.5
sequence_chain="AUCACCCUGGUCUUCGAGUGA [Fam2.1 aminoacylation ribozyme variant]" assayed_target=biotinyl-Leu-oxazolone recorded_measurement=8.44
sequence_chain="UAGUUUUCUAAUAGUCGCAAG [Fam3.1 aminoacylation ribozyme variant]" assayed_target=biotinyl-Leu-oxazolone recorded_measurement=1.3
sequence_chain="ACUCACCUAGGUCAUGGGGUG [Fam2.2 aminoacylation ribozyme variant]" assayed_target=biotinyl-Leu-oxazolone recorded_measurement=4.65
sequence_chain="CCACACUUCAAGCACCCGGUC [Fam1B.1 aminoacylation ribozyme variant]" assayed_target=biotinyl-Leu-oxazolone recorded_measurement=1.64
sequence_chain="AGUAUCCUGGUCAUCGAGUGA [Fam2.1 aminoacylation ribozyme variant]" assayed_target=biotinyl-Leu-oxazolone recorded_measurement=7.39
sequence_chain="AUUACCCUGGUUAUCGAGUAA [Fam2.1 aminoacylation ribozyme variant]" assayed_target=biotinyl-Leu-oxazolone recorded_measurement=1.32
sequence_chain="AAGUUUGCUAAUAGUCACAAA [Fam3.1 aminoacylation ribozyme variant]" assayed_target=biotinyl-Leu-oxazolone recorded_measurement=1.22
sequence_chain="AUUCACCUAGGUCAUCAGGUG [Fam2.2 aminoacylation ribozyme variant]" assayed_target=biotinyl-Leu-oxazolone recorded_measurement=1.56
sequence_chain="CUCCUUAAAACAAUCGGUCUG [Fam1A.1 aminoacylation ribozyme variant]" assayed_target=biotinyl-Leu-oxazolone recorded_measurement=0.899
sequence_chain="AAGUUUGCUAAUAGUGGCAAU [Fam3.1 aminoacylation ribozyme variant]" assayed_target=biotinyl-Leu-oxazolone recorded_measurement=0.961
sequence_chain="AUUACCCUGGUCUUCGUGUGA [Fam2.1 aminoacylation ribozyme variant]" assayed_target=biotinyl-Leu-oxazolone recorded_measurement=1.45
sequence_chain="AUUAUCCUGGUAAUCGAGUGA [Fam2.1 aminoacylation ribozyme variant]" assayed_target=biotinyl-Leu-oxazolone recorded_measurement=14.5
sequence_chain="CGACAUUUCAAGCAAUCGGUC [Fam1B.1 aminoacylation ribozyme variant]" assayed_target=biotinyl-Leu-oxazolone recorded_measurement=1.06
sequence_chain="AUUCAACUAGGUCAUCGGAUG [Fam2.2 aminoacylation ribozyme variant]" assayed_target=biotinyl-Leu-oxazolone recorded_measurement=0.772
sequence_chain="AUUCACCUCGGUCAUCGCGUG [Fam2.2 aminoacylation ribozyme variant]" assayed_target=biotinyl-Leu-oxazolone recorded_measurement=16
sequence_chain="AUUCAACUAGGUAAUCGGGUG [Fam2.2 aminoacylation ribozyme variant]" assayed_target=biotinyl-Leu-oxazolone recorded_measurement=3.41
sequence_chain="CUCCGUCAAACAAUCGGUCUG [Fam1A.1 aminoacylation ribozyme variant]" assayed_target=biotinyl-Leu-oxazolone recorded_measurement=0.889
sequence_chain="AUGACCCUGGUCAUCGAGUUA [Fam2.1 aminoacylation ribozyme variant]" assayed_target=biotinyl-Leu-oxazolone recorded_measurement=5.29
sequence_chain="CGACACAUCAAGCAAUCGGUC [Fam1B.1 aminoacylation ribozyme variant]" assayed_target=biotinyl-Leu-oxazolone recorded_measurement=1.09
sequence_chain="AAGUCUGCGAAUAGUCGCAAG [Fam3.1 aminoacylation ribozyme variant]" assayed_target=biotinyl-Leu-oxazolone recorded_measurement=1.38
sequence_chain="AUACACCUAGGUCACCGGGUG [Fam2.2 aminoacylation ribozyme variant]" assayed_target=biotinyl-Leu-oxazolone recorded_measurement=3.78
sequence_chain="AUUCACAUAAGUCAUCGGGUG [Fam2.2 aminoacylation ribozyme variant]" assayed_target=biotinyl-Leu-oxazolone recorded_measurement=18.3
sequence_chain="AUUACCCUGGCCAUCGAAUGA [Fam2.1 aminoacylation ribozyme variant]" assayed_target=biotinyl-Leu-oxazolone recorded_measurement=1.4

Attribution: the supplement of paper PMC9233669
